Hey, just so you know, these numbers are from PubChem BioAssay (NCI).

Attribute: TGI
Test system: CCRF-CEM leukemia
Assay: NCI tumour cell line growth inhibition, 48 h

Example molecules with recorded TGI:
MOLECULE: COc1cc(-n2cc(-c3ccc(Cl)cc3)nc2SCc2cccc(C#N)c2)cc(OC)c1OC
TGI: > 100 µM

MOLECULE: CCCC/C=C1\CCC(C)(CN(C)C)C1=O (stereo not drawn)
TGI: > 100 µM

# query: TGI of entry COc1cc(Cl)cc(-c2nn(-c3cccc(NC(=O)Nc4cc(C(F)(F)F)cc(C(F)(F)F)c4)c3)cc2-c2ccncc2)c1 1.52 µM

* * *

Tested on: UACC-257 melanoma
Test: NCI tumour cell line growth inhibition, 48 h
MEASURED_PARAMETER: TGI

Example compounds with recorded TGI:
MOLECULAR_STRING: Cc1ccc(C(=O)Nc2ccc(CP(=O)(O)O)cc2CP(=O)(O)O)cc1NC(=O)c1cccc(NC(=O)Nc2cccc(C(=O)Nc3cc(C(=O)Nc4ccc(CP(=O)(O)O)cc4CP(=O)(O)O)ccc3C)c2)c1
TGI: > 100 µM

MOLECULAR_STRING: COc1ccc(NC(=O)/C(=N/NC(N)=S)C2C(=O)NC(=S)NC2=O)c(OC)c1
TGI: > 100 µM

Kindly review the next compound as well.
Quick check: TGI on UACC-257 melanoma, item COC(=O)CN1SC2(SC13C(C)(C)C(=O)C3(C)C)C(C)(C)C(=O)C2(C)C ? > 100 µM
